- TESTED TARGET: β-secretase (BACE) (Homo sapiens)
- Construct: purchased Panvera
- Sequence (P56817 46-501): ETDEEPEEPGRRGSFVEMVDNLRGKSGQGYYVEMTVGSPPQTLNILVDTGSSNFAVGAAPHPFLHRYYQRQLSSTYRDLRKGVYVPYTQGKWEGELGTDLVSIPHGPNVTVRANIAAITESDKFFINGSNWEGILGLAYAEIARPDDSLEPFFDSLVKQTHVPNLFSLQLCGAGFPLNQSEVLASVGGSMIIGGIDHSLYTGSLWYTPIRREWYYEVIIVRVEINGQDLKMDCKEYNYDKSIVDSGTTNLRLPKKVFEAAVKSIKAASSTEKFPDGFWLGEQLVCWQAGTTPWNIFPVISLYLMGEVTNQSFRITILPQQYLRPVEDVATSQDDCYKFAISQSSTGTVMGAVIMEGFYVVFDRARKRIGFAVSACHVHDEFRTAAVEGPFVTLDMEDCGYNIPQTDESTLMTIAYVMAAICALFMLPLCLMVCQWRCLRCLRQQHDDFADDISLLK
- METHOD NOTES: BACE FS1 Assay (% Inhibition and Ki)
- Format: biochemical
- PROTOCOL CONDITIONS: 1 μM test compound; FS1 substrate; read-out: % Inhibition (FS) @ 1 μM
MEASUREMENT TYPE: inhibition at 1 µM (%)
Numbers only; they are read as %.

CN(C(=O)CC[C@@H](C1CCOCC1)N1Cc2cc(Oc3ccccc3)ncc2N=C1N)[C@H]1CC[C@@H](C(=O)O)CC1 : 112
CC(C)C(CCC(=O)N(CCO)C1CCC(C(=O)O)CC1)N1Cc2cc(Oc3ccccc3)ncc2N=C1N (stereo not drawn) : 102
CC(C)C(CCC(=O)N(C)C1CCC(C#N)CC1)N1Cc2cc(Oc3ccccc3)ncc2N=C1N (stereo not drawn) : 78
CC(C)[C@H](CCC(=O)N(C)C1CCC(c2nnn[nH]2)CC1)N1Cc2cc(Oc3ccccc3)ncc2N=C1N (stereo partly drawn) : 63
CN(CCCCC(=O)O)C(=O)CC[C@@H](C1CCCCC1)N1Cc2cc(Oc3ccccc3)ncc2N=C1N : 88
COC(=O)[C@H]1CC[C@H](N(C)C(=O)CC[C@@H](C2CCOCC2)N2Cc3cc(Oc4ccccc4)ncc3N=C2N)CC1 : 106
CCOC(=O)C1CCC(N(C)C(=O)CCC(C2CCOCC2)N2Cc3cc(Oc4ccccc4)ncc3N=C2N)CC1 (stereo not drawn) : 96
CC(C)[C@H](CCC(=O)N(CCO)C(C)C)N1Cc2cc(Oc3ccccc3)ncc2N=C1N : 83
CC(C)C(CCC(=O)N(CCO)C1CCC(C#N)CC1)N1Cc2cc(Oc3ccccc3)ncc2N=C1N (stereo not drawn) : 80
NC1=Nc2cnc(Oc3ccccc3)cc2CN1[C@@H](CCC(=O)N(CCO)[C@H]1CC[C@@H](C(=O)O)CC1)C1CCCCC1 : 111

query: Recorded inhibition at 1 µM for CN(C(=O)CCC(CCO)N1Cc2cc(Oc3ccccc3)ncc2N=C1N)C1CCCCC1 (stereo not drawn) , please?
result: 61

query: Consider the molecule `CN(C(=O)CC[C@@H](C1CCCCC1)N1Cc2cc(-c3ccccc3F)ncc2N=C1N)C1CCCCC1` and give its measured inhibition at 1 µM.
result: 127

query: Requested read-out: inhibition at 1 µM. Entry: `CN(C(=O)CC[C@@H](C1CCCCC1)N1Cc2cc(Oc3ccccc3)ncc2N=C1N)C1CCCCC1`
result: 131

query: Which inhibition at 1 µM reading was recorded for the molecule `NC1=Nc2cnc(Oc3ccccc3)cc2CN1[C@@H](CCC(=O)N(CCO)[C@H]1CC[C@@H](C(=O)O)CC1)C1CCOCC1` ?
result: 110

query: Request the reported inhibition at 1 µM associated with `CCOC(=O)CCN(C)C(=O)CC[C@@H](C(C)C)N1Cc2cc(Oc3ccccc3)ncc2N=C1N`
result: 94
